These data points were gathered from the supplement of paper PMC12455559.

Assay: PET hydrolysis, aromatic products released after 48 h (umol product/mg enzyme); higher = more PET depolymerization activity
Details: substrate: cryPow; 40 °C; pH 6.5
observation-type: PET hydrolysis
Keep the answer to the number alone.

Value of PET hydrolysis reported for the sequence ADNPYQRGPDPTPASVGASRGTFATAQVSVPAGNGFGGGVIYYPTDTSQGRFGAVAVVPGYTATWAAEGAWMGPWLASFGFVVIGIDTNSRNDWDTARGTQLLAALDYLTQRSSVRDRVDASRAAVMGHSMGGGGAIYAALQRPSLKTTVGLAPFSASQTLNNMRVPTMLLAGQNDGTTTPASIRNYYGQVPSGVEKAYLELTGAGHGFPTSNNPTMMRNVIPWLKIFVDSDTRYTQFLCPLSNTNGIRSYESTCPLVPSPVPTDPPTSAPPTSTPPTTPPPTTPPPTTPAPGGPCAASYRTVNSWSGGFQGEVTVRAGGAPINGWTVRWTLGGGQSISQVWNGTLSTSGSTATVRNAPYNGSLPASGSTTFGFIANGSPSAPTLTCASP [TEP013] is 27

----------
PET hydrolysis by entry:
Experiment: PET hydrolysis, aromatic products released after 48 h (umol product/mg enzyme); higher = more PET depolymerization activity
Details: substrate: aFilm; 60 °C; pH 5.5

{"columns": ["seq-text", "PET hydrolysis"],
 "data": [
  ["ADNPYQRGPDPTPASVSANRGTFATAQISVPAGNGFGGGVIYHPTDTSQGTFGAIAVVPGYTATWAAEGAWMGHWLASFGFVVIGIDTNSRNDWDTARGTQLLAALDYLTQRSPVRDRVDANRTAVMGHSMGGGGAMHAALQRPSLKAAIGLAPFSPSQNLTTTRVPTMLLAGQSDTTTTPASILNLYNGIPAATEKAYLELTGAGHGFPTSNNPTMMRNVIPWLKIFVDSDTRYTQFLCSLSNWDGIRAYQSTCPLVPSPVPTTTSTTSTTTTISTTTTTPAPGDACSATYRTTNSWPGGYQAEVTVTAGNTAVNGWNVQWTLGSGQTVTQVWNGTLNVSGSTASVRNASYNGSLQANTSTTFGFIGGGTPPTSSLSCTSP [ESM035]", "< 3"]
]}

Value of PET hydrolysis reported for the sequence MAADNPYQRGPNPTSASVAASRGTFATAELSVPRGNGFGGGKIYYPTDTTQGTFGAIAIVPGYTATWAAEGAWMGHWLASFGFVVIGIDTNSRNDNDTARGTQLLAALDYLTQRSSVRGRVDAKRLAVMGHSMGGGGALVAARQRPSLKAAVGLAPFKPSGPPSADRVPTMVIAGQRDGTVTPSYVDGLYRAIPAGTEKAYLEFAGAGHAFPTRPNPLQMRLVIPWLKSFTDHDTRYHQFLCPLKDRTGVTAYRSTCPLVAPGARD [TEP041] is < 3

Value of PET hydrolysis reported for the sequence MLTITVATGSASAADNPYQRGPDPTRTSVTAVNGPFANTSVSVPTGYGFNGGRIYYPTDTSQGTFGAIAISPGYTALFSAELAWMGPWLASHGFVVIGIETNSRNDFDTARGTQLLAALDYLTQQSPVRDRVDPNRLAVAGHSMGGGGALSAATRRSSLKAVVGIAPYSPSSNLANDRVPTMIFAGQADTVVTPSYATGLYNSLPTTTESAYLEVAGADHGFMVGRSNPVMVRTMLPFVKMFIDNDARYSQFLCPLLDSSGVVTYRSTCPLLPSTPPTSTPTPTDPPTPTPTPTVPPGSASEIVGTQSSRCIDVPNASRNNGTRVQLYDCNKQTNQA [ESM121] is < 3
